The measurements presented in this section are drawn from patent US20220194960A1.

system: Human non-small cell lung cancer cells NCI-H1299; assay: NCI-H1299 cell proliferation inhibition (CellTiter-Glo); assay type: cell-based; conditions: Homo sapiens, 72 h, cultured 3 days, table head NCI-H1975, method NCI-H1299
quantity: pIC50
For clarity, pIC50 is expressed as the negative log10 of concentration in mol/L.

Reported pIC50 for CCCc1cc2cnc(Nc3ccc(N4CCN(C)CC4)cc3)nc2n1-c1cccc(N=S(C)(C)=O)n1 [Example 4] was 7.48

Looking up COC(=O)CN1CCN(c2ccc(Nc3ncc4cc(C5CC5)n(-c5cccc(N=S(C)(C)=O)n5)c4n3)cc2)CC1 [Example 127] , I found its pIC50 recorded as 7.15

pIC50 measured on CN1CC2(CCN(c3ccc(Nc4ncc5c(F)c(C6CC6)n(-c6cccc(N=S(C)(C)=O)n6)c5n4)cc3)CC2)C1 [Example 86] = 7.22
